Catalogue of inhibition values
# measured target: G-protein coupled receptor 35 (Homo sapiens) (UniProt Q9HC97)
# Sequence (Q9HC97 whole entry, looked up): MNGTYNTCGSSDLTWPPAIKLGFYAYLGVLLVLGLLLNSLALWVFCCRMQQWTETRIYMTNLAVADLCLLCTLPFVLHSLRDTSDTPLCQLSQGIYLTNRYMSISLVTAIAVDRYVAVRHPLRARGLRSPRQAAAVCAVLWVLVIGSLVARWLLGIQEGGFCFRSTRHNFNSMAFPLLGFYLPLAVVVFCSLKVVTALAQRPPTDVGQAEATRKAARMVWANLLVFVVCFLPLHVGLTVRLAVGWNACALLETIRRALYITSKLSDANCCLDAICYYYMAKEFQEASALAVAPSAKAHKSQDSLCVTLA
# assay overview: inhibition of zaprinast-stimulated GPR35 beta-arrestin translocation – imaging, U2OS, beta-arrestin-GFP, zaprinast agonist, primary screen (AID 2058)
# condition description: zaprinast antagonism, at 10 µM, hits give high values
Screen size: about 290,000 compounds; about 150 (0.052%) were called active. This is one part of a sample in which actives are shown more often than they occur. Potency and affinity values are given separately.
measurement name: inhibition (%)

>  <compound>
CC(C)N1CC=C2C(C#N)=C(N)C(C#N)(C#N)C(c3ccccc3)C2C1 (stereo not given)

>  <result number>
69

$$$$
>  <compound>
Cc1ccc(C2C3CSCC=C3C(C#N)=C(N)C2(C#N)C#N)cc1 (stereo not given)

>  <result number>
1.6

$$$$
>  <compound>
COc1cccc(/C=c2\s/c(=C/C(=O)c3ccc(C)cc3)[nH]c2=O)c1OC

>  <result number>
-9.9

$$$$
>  <compound>
CC(C)c1ccc(C2C3CSCC=C3C(C#N)=C(N)C2(C#N)C#N)cc1 (stereo not given)

>  <result number>
-18.5

$$$$
>  <compound>
COc1ccc(/C=c2\s/c(=C/C(=O)c3ccc(C)cc3)[nH]c2=O)cc1OC

>  <result number>
8.2

$$$$
>  <compound>
COc1cc(/C=N/O)cc(Cl)c1OC

>  <result number>
1.8

$$$$
>  <compound>
CCC1C2CN(C(C)=O)CC=C2C(C#N)=C(N)C1(C#N)C#N (stereo not given)

>  <result number>
-14.1

$$$$
>  <compound>
COc1cccc(Nc2nc(N)c([N+](=O)[O-])c(N3CCOCC3)n2)c1

>  <result number>
0.4

$$$$
>  <compound>
CC(=O)c1sc2nc(-c3cccs3)cc(C(F)(F)F)c2c1N

>  <result number>
19.7

$$$$
>  <compound>
N#CC1=C(N)C(C#N)(C#N)[C@H](c2ccncc2)[C@H]2CN(C(=O)OCc3ccccc3)CC=C12

>  <result number>
1

$$$$

---

# measured target: G-protein coupled receptor 35 (Homo sapiens)
# assay overview: inhibition of zaprinast-stimulated GPR35 beta-arrestin translocation – imaging, U2OS, beta-arrestin-GFP, zaprinast agonist, primary screen (AID 2058)
# condition description: zaprinast antagonism, at 10 µM
Hit rate of the full screen: of about 290,000 compounds, about 150 (0.052%) were called active.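 The calls were made as follows: active = inhibition of at least 50% with at least 30 cells and total cytoplasm GFP at most 10,000,000; inconclusive = under 30 cells or total GFP of 10,000,000 plus; inactive = the rest.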 For the sample, actives were picked, then their nearest neighbours and some compounds at random. Results with a measured potency or affinity are listed apart.
Possible outcomes: y = active, n = inactive

>  <compound>
O=C1/C(=C/c2ccc(Cl)cc2)NC(=S)N1Cc1cccnc1

>  <classification>
n

$$$$
>  <compound>
COCc1cc(/C=N\NC(=O)Cc2ccc(Cl)cc2)ccc1OC

>  <classification>
n

$$$$
>  <compound>
CCc1cccc2c(C(=O)C(F)(F)F)cn(CC(=O)N3CCOCC3)c12

>  <classification>
n

$$$$
>  <compound>
CCn1c2ccccc2c2cc(NC(=O)c3ccc([N+](=O)[O-])cc3)ccc21

>  <classification>
n

$$$$
>  <compound>
CSc1ccc(C2c3[nH]c4ccccc4c3CCN2C(=O)c2ccnn2C)cc1 (centres undefined)

>  <classification>
n

$$$$
>  <compound>
O=C(CCN1C(=O)/C(=C/c2ccc(Cl)cc2)SC1=S)Nc1cccc(C(=O)O)c1

>  <classification>
n

$$$$
>  <compound>
CC(NC(=O)NC1CCCCC1)c1ccccc1 (centres undefined)

>  <classification>
n

$$$$
>  <compound>
COc1ccc(C2CC(c3ccc(F)cc3)=NN2c2ccccc2)cc1OC (centres undefined)

>  <classification>
n

$$$$
>  <compound>
COc1ccc2nc(C)cc(NCc3cccc(C(F)(F)F)c3)c2c1

>  <classification>
n

$$$$
>  <compound>
Fc1cccc(Cl)c1CSc1ccc(-c2cccnc2)nn1

>  <classification>
n

$$$$
>  <compound>
CCOc1ccc(/C=N/NC(=O)Cc2csc(Nc3cccc(C(F)(F)F)c3)n2)c(OCC)c1

>  <classification>
n

$$$$
>  <compound>
O=C(Nc1cc([N+](=O)[O-])ccc1N1CCCC1)c1ccco1

>  <classification>
n

$$$$
>  <compound>
COc1ccc(NC(=O)c2cc3c([nH]c4ccccc43)c(C)n2)cc1

>  <classification>
n

$$$$
>  <compound>
CCC(NC(=O)NC1CCCCC1)c1ccccc1 (centres undefined)

>  <classification>
y

$$$$
>  <compound>
O=S(=O)(NCCSc1ccccc1)c1cccs1

>  <classification>
n

$$$$
>  <compound>
O=C(CCCN1C(=O)/C(=C/c2ccccc2)SC1=S)Nc1cccc(O)c1

>  <classification>
n

$$$$
>  <compound>
O=C(NC(c1ccccc1)c1ccccc1)c1ccc(CO)cc1

>  <classification>
n

$$$$
>  <compound>
Oc1ccc(C2=NN(c3ccccc3)C(c3ccc(F)cc3)C2)cc1 (centres undefined)

>  <classification>
y

$$$$
>  <compound>
N#Cc1c(Cl)nc(SCc2ccccc2)nc1-c1ccccc1

>  <classification>
n

$$$$
>  <compound>
CC(C)(C=O)C1=CC(=O)c2ccccc2C1=O

>  <classification>
y

$$$$
>  <compound>
Oc1ccccc1C1=NN(c2ccccc2)C(c2ccc(F)cc2)C1 (centres undefined)

>  <classification>
n

$$$$
>  <compound>
CCN(CC)c1ccc2c(C)c(Cl)c(=O)oc2c1

>  <classification>
n

$$$$
>  <compound>
N=c1c2c3c(sc2ncn1N)CCC3

>  <classification>
n

$$$$
>  <compound>
COC(=O)c1cc(-c2ccc(Cl)cc2)n[nH]1

>  <classification>
n

$$$$
